Values were extracted from patent US20240301056A1.

Target: T1, Mouse L1CAM on B16F1 cells (mouse, UniProt P11627 20-1260)
T1 construct: whole, on cells; also called mouse L1CAM-positive cells
T1 sequence (P11627 20-1260): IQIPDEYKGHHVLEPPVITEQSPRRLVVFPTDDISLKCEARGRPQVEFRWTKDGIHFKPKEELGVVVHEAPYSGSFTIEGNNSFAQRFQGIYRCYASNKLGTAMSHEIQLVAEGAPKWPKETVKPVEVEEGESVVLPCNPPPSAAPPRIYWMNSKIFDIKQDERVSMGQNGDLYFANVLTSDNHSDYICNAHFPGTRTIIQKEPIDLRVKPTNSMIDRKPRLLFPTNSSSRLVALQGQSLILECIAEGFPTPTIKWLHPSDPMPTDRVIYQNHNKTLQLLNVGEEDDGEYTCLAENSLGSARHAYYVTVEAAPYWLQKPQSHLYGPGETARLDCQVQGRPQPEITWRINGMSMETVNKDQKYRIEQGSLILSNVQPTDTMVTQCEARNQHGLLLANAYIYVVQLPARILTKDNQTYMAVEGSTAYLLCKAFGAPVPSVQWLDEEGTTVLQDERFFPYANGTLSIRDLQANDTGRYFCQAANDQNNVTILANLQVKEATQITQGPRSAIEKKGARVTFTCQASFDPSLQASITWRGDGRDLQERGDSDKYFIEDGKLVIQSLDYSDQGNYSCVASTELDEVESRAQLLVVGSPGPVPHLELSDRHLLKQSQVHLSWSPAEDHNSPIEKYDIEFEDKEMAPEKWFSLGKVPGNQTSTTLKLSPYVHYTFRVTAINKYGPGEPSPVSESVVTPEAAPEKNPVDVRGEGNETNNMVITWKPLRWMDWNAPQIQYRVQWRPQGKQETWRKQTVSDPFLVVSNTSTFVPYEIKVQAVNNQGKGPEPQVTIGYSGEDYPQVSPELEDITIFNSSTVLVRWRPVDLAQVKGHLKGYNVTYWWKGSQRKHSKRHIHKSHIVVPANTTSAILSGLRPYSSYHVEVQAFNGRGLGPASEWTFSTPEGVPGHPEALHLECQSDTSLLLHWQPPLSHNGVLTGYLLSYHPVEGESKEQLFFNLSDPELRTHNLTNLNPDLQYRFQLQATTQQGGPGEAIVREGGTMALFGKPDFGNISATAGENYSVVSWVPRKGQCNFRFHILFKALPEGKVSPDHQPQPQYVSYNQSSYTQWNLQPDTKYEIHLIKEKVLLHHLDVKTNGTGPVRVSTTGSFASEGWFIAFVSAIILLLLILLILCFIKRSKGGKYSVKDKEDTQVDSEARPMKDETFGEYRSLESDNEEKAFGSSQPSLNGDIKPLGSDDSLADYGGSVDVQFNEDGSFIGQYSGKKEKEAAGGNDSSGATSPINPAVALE
Assay: flow cytometry on B16F1 cells, antibody 10 ug/ml, FITC anti-human IgG Fc secondary
Endpoint Label: binding result

[[record]]
binder = "Ab4H6 antibody (antibody, human IgG1, kappa, V domains shown, Whole human IgG1, kappa; also called Anti-L1CAM (\"Ab4H6\"); Ab4H6 mutant) VH: EVQLVESGGGVVQPGGSLRLSCAASGFTFSRFGMHWVRQAPGKGLEWVAFISNEGSNKYYADSVKGRFTISRDNSANTLYLQMNSLRAEDTAVYYCARGRAYGSGSLFDPWGQGTLVTVSS VL: DIQLTQSPSSLSASVGDRVTITCRASRTISSYVNWYRQRPGKAPESLIYAASNLHSGVPSRFSGSGSGTDFTLTISSLQPEDFATYYCQQSLHFYPWTFGQGTKLEIKR"
endpoint_label = "binding result"
value_measured = "binds"

